protein stability index listing for selected variants.
B1: ZNF511 (parent)
chain: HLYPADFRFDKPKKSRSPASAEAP

- Variants of: B1
- experimental_details: protein stability index of a GFP-peptide fusion (GPS, HEK-293T) (PSI 1-6); higher = more stable;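 further: lentivirally expressed fusions sorted by FACS into six bins by GFP to DsRed ratio, PSI derived from sequencing read proportions per bin multiplied by bin number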
- condition_context: c terminus: a fixed tail appended

mutation_code: P24V
protein stability index: 2.98
--
mutation_code: R16T
protein stability index: 3.44
--
mutation_code: P18D
protein stability index: 3.09
--
mutation_code: P12T
protein stability index: 3.7
--
mutation_code: K13M
protein stability index: 2.84
--
mutation_code: K11Q
protein stability index: 3.24
--
mutation_code: A19C
protein stability index: 2.63
--
mutation_code: S20R
protein stability index: 2.97
--
mutation_code: K11G
protein stability index: 3.5
--
mutation_code: A5E
protein stability index: 2.3
--
mutation_code: R8H
protein stability index: 2.82
--
mutation_code: S15P
protein stability index: 3.19
--
mutation_code: S20K
protein stability index: 2.71
--
mutation_code: L2Y
protein stability index: 3.84
--
mutation_code: P4N
protein stability index: 3.78
--
mutation_code: F7R
protein stability index: 4.22
--
mutation_code: F7T
protein stability index: 4.25
--
mutation_code: A19L
protein stability index: 2.88
--
mutation_code: A19M
protein stability index: 2.7
--
mutation_code: K13G
protein stability index: 2.92
--
mutation_code: K14Q
protein stability index: 2.39
--
mutation_code: F9W
protein stability index: 2.82
--
mutation_code: K14R
protein stability index: 2.01
--
mutation_code: S17R
protein stability index: 3.29
--
mutation_code: K13D
protein stability index: 3.04
--
mutation_code: K13T
protein stability index: 3.18
--
mutation_code: H1N
protein stability index: 4.2
--
mutation_code: P4H
protein stability index: 3.95
--
mutation_code: P18Y
protein stability index: 2.34
--
mutation_code: P24L
protein stability index: 2.92
--
mutation_code: H1K
protein stability index: 4.05
--
mutation_code: P18E
protein stability index: 2.74
--
mutation_code: K14S
protein stability index: 3.08
--
mutation_code: A21D
protein stability index: 2.72
--
mutation_code: K14P
protein stability index: 2.63
--
mutation_code: R16V
protein stability index: 2.51
--
mutation_code: A5Q
protein stability index: 2.16
--
mutation_code: Y3V
protein stability index: 3.81
--
mutation_code: P4C
protein stability index: 3.54
--
mutation_code: H1Q
protein stability index: 3.65
--
mutation_code: D10L
protein stability index: 3.01
--
mutation_code: P12Q
protein stability index: 3.18
--
mutation_code: L2S
protein stability index: 4.63
--
mutation_code: D6S
protein stability index: 3.17
--
mutation_code: P4M
protein stability index: 3.43
--
mutation_code: P18T
protein stability index: 3.52
--
mutation_code: S15F
protein stability index: 3.04
--
mutation_code: H1E
protein stability index: 3.81
--
mutation_code: R16D
protein stability index: 3.18
--
mutation_code: K13H
protein stability index: 2.78
--
mutation_code: F7V
protein stability index: 4.62
--
mutation_code: P18W
protein stability index: 2.51
--
mutation_code: D10S
protein stability index: 3.22
--
mutation_code: A5K
protein stability index: 2.97
--
mutation_code: F7G
protein stability index: 4.42
--
mutation_code: Y3P
protein stability index: 4.73
--
mutation_code: A5H
protein stability index: 3.06
--
mutation_code: P4S
protein stability index: 3.9
--
mutation_code: H1M
protein stability index: 4.09
--
mutation_code: P18N
protein stability index: 2.34
--
mutation_code: F7L
protein stability index: 4.49
--
mutation_code: S15T
protein stability index: 2.4
--
mutation_code: S17D
protein stability index: 3.28
--
mutation_code: H1G
protein stability index: 4.7
--
mutation_code: K13Q
protein stability index: 3.4
--
mutation_code: R8Y
protein stability index: 2.37
--
mutation_code: S17K
protein stability index: 3.01
--
mutation_code: P24W
protein stability index: 2.14
--
mutation_code: Y3H
protein stability index: 2.69
--
mutation_code: P18G
protein stability index: 2.58
--
mutation_code: E22L
protein stability index: 2.58
--
mutation_code: Y3R
protein stability index: 4.26
--
mutation_code: A23T
protein stability index: 2.72
--
mutation_code: F7I
protein stability index: 3.94
--
mutation_code: F7N
protein stability index: 4.15
--
mutation_code: K14G
protein stability index: 3.22
--
mutation_code: L2P
protein stability index: 4.52
--
mutation_code: A21I
protein stability index: 2.82
--
mutation_code: P4F
protein stability index: 2.85
--
mutation_code: Y3C
protein stability index: 3.55
--
mutation_code: P12M
protein stability index: 2.72
--
mutation_code: P24M
protein stability index: 2.53
--
mutation_code: K13R
protein stability index: 3.2
--
mutation_code: E22G
protein stability index: 3.13
--
mutation_code: A21P
protein stability index: 3.11
